# Organism: Rattus norvegicus
# experiment: Open TG-GATES - Regimen: Daily Repeat
# Assay type: toxicity, organism-based, Sprague-Dawley
# Parameters: regimen Daily Repeat, gender Male, age 6 weeks
# settings: in vivo, po, 1000 mg/kg, […], tissue Liver, route gavage, dose level High, time 14 day
measured endpoint: LIVER

Task: Please look at this molecule and report its LIVER: CCOC(=O)CCC(=O)O[C@H]1[C@H](O[C@@H]2[C@@H](C)[C@H](O[C@H]3C[C@@](C)(OC)[C@@H](O)[C@H](C)O3)[C@@H](C)C(=O)O[C@H](CC)[C@@](C)(O)[C@H](O)[C@@H](C)C(=O)[C@H](C)C[C@@]2(C)O)O[C@H](C)C[C@@H]1N(C)C [ERYTHROMYCIN ETHYLSUCCINATE]
Output: 12.3 g

Task: Please look at this molecule and report its LIVER: COc1ccc2[nH]c([S+]([O-])Cc3ncc(C)c(OC)c3C)nc2c1 (centres undefined)
Output: 21.2 g

Task: Please look at this molecule and report its LIVER: `NC(N)=Nc1nc(CSCCC(N)=NS(N)(=O)=O)cs1`
Output: 14 g

Task: Please look at this molecule and report its LIVER: CCOc1ccc(NC(=O)CC(C)O)cc1 (centres undefined)
Output: 14.6 g

* * *

# Organism: Rattus norvegicus
# experiment: Open TG-GATES - Regimen: Daily Repeat
# Assay type: toxicity, organism-based, Sprague-Dawley
# Parameters: regimen Daily Repeat, gender Male, age 6 weeks
# settings: in vivo, po, 0 mg/kg, […], tissue Plasma, route gavage, dose level Control, time 28 day
measured endpoint: Na (meq/L)
Please respond with the number in meq/L and leave the unit unwritten.

Task: Please look at this compound and report its Na: COc1ccc2[nH]c([S+]([O-])Cc3ncc(C)c(OC)c3C)nc2c1 (stereo not drawn)
Output: 141.2

Task: Please look at this compound and report its Na: CCOC(=O)CCC(=O)O[C@H]1[C@H](O[C@@H]2[C@@H](C)[C@H](O[C@H]3C[C@@](C)(OC)[C@@H](O)[C@H](C)O3)[C@@H](C)C(=O)O[C@H](CC)[C@@](C)(O)[C@H](O)[C@@H](C)C(=O)[C@H](C)C[C@@]2(C)O)O[C@H](C)C[C@@H]1N(C)C [ERYTHROMYCIN ETHYLSUCCINATE]
Output: 141

Task: Please look at this compound and report its Na: CCCNC(=O)NS(=O)(=O)c1ccc(Cl)cc1 [CHLORPROPAMIDE]
Output: 144

* * *

# Species on record: Rattus norvegicus
# experiment: Open TG-GATES - Regimen: Single
# Assay type: toxicity, organism-based, Sprague-Dawley
# Parameters: regimen Single, gender Male, age 6 weeks
# settings: in vivo, po, 0 mg/kg, 9 h, tissue Plasma, route gavage, dose level Control
Kindly state Na for each of the entries shown.
Please respond with the number in meq/L and leave the unit unwritten.

Task: Please look at this compound and report its Na: `CC/C(=C(\c1ccccc1)c1ccc(OCCN(C)C)cc1)c1ccccc1`
Output: 142.8

Task: Please look at this compound and report its Na: `CN(C)CCN(Cc1cccs1)c1ccccn1`
Output: 142.4

Task: Please look at this compound and report its Na: COc1ccc2[nH]c([S+]([O-])Cc3ncc(C)c(OC)c3C)nc2c1 (centres undefined)
Output: 140.4

Task: Please look at this compound and report its Na: CCOc1ccc(NC(=O)CC(C)O)cc1 (centres undefined)
Output: 142.2
